Examples of molecules with documented microsomal CLint at 1 µM follow.
assay: In vitro metabolism (metabolic stability) in human liver microsomes; details: human, liver microsomes, pH 7.4, HLM CLint, human liver microsomes; average of n = 2 replicates; < 7 means < 15% loss over 60 min
Report the value in µL/min/mg with no unit label.

Known results for molecules:
molecule	measurementUnit	recordedValue
C[C@H]1Cc2c([nH]c3cc(Cl)c(F)cc23)[C@@]2(N1)C(=O)Nc1ccc(Cl)cc12	µL/min/mg	24.1
Cc1nc(Nc2ncc(N3CCN(C)[C@H](C)C3)c(Nc3cc(C)n(C)n3)n2)cc(C2CC2)c1F	µL/min/mg	13.2
CO[C@H]1O[C@@H]2O[C@@]3(C)CC[C@H]4[C@H](C)CC[C@@H]([C@H]1C)[C@@]24OO3	µL/min/mg	163
CC1(C)c2nc(-c3ccc(F)cc3)c(Nc3ccc(F)cc3)n2CCN1C(=O)CN	µL/min/mg	14.7
COc1ccc2nc3cc(Cl)ccc3c(Nc3cc(CN4CCCC4)c(O)c(CN4CCCC4)c3)c2n1	µL/min/mg	8.6

Data request: Tell us which microsomal CLint at 1 µM value is on record for C[C@H]1[C@@H](O)O[C@@H]2O[C@@]3(C)CC[C@H]4[C@H](C)CC[C@@H]1[C@@]24OO3 [Dihydroartemisinin]
Data returned: 16.6

Data request: Read off the recorded microsomal CLint at 1 µM for CCNCc1cc(Nc2ccnc3cc(Cl)ccc23)ccc1O
Data returned: 13.3

Data request: // Input: N#Cc1cc(NC(=O)[C@H]2c3ccccc3C(=O)N(CC(F)(F)F)[C@@H]2c2cccnc2)ccc1F . Output its microsomal CLint at 1 µM only.
Data returned: 142
